Values compiled from patent US20190194347A1.

target: endogenous human HER3 on human cancer cells (SK-Br-3, MCF7, BT-474) (human, UniProt P21860 20-1342); assay: cell-based or functional assay
Assignment: determine reported % inhibition of proliferation, BT-474, 10 µg/ml IgG for the given binders.

Find the recorded % inhibition of proliferation, BT-474, 10 µg/ml IgG belonging to MOR09824 (antibody, human IgG1, kappa, V domains shown) VH: QVQLVESGGGLVQPGGSLRLSCAASGFTFSSYAMSWVRQAPGKGLEWVSVISAWGHVKYYADSVKGRFTISRDNSKNTLYLQMNSLRAEDTAVYYCARWGDEGFDIWGQGTLVTVSS VL: DIQMTQSPSSLSASVGDRVTITCRASQGISNWLAWYQQKPGKAPKLLIYGASSLQSGVPSRFSGSGSGTDFTLTISSLQPEDFAVYYCQQYSSFPTTFGQGTKVEIKR and report it. 36.8%

Value lookup for % inhibition of proliferation, BT-474, 10 µg/ml IgG; key = MOR09823 (antibody, V domains shown) VH: QVQLVESGGGLVQPGGSLRLSCAASGFTFSSYAMSWVRQAPGKGLEWVSVTGAVGRTYYPDSVKGRFTISRDNSKNTLYLQMNSLRAEDTAVYYCARWGDEGFDIWGQGTLVTVSS VL: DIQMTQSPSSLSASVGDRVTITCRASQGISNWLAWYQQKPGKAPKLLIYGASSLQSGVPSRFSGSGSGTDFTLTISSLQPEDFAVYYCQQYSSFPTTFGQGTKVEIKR 39.8%

Reported % inhibition of proliferation, BT-474, 10 µg/ml IgG for MOR09825 (antibody, human IgG1, kappa, V domains shown) VH: QVQLVESGGGLVQPGGSLRLSCAASGFTFSSYAMSWVRQAPGKGLEWVSAINSQGKSTYYADSVKGRFTISRDNSKNTLYLQMNSLRAEDTAVYYCARWGDEGFDIWGQGTLVTVSS VL: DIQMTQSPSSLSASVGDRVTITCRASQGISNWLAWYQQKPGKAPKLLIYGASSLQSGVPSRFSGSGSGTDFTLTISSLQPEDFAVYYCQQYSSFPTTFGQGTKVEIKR : what is it? 37.2%
